The following binders are listed with their measured percentage of input scFv antibody bound values.
Target: T1, human glycophorin A on human red blood cells or red blood cell membranes (human, UniProt P02724 20-150)
T1 construct: whole, on cells; also called hRBC; human RBC membranes
T1 sequence (looked up): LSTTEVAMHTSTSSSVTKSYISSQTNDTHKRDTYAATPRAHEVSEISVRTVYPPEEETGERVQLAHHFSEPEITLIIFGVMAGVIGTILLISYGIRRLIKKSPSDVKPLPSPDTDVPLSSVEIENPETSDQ
Assay: scFv on intact human RBC, unbound scFv by ELISA; 120 min after 200-fold dilution

BINDER: TPP-7781 scFv with C-terminal 6xHIS tag (scFv) scFv: DIQLTQSPSFLSASVGDRVTITCRASSSVRYIYWFQQKPGKAPKLLIYATSTLQSGVPSRFSGSGSGTEYTLTISSLQPEDFATYYCHQRNSFPYTFGQGTKLEIKGGGGSGGGGSGGGGSGGGGSEVQLVQSGAEVKKPGASVKVSCKASGYTFTTYTIHWVRQAPGQGLEWMGYINPKSGWTRYNPKFKGRVTMTRDKSTSTAYMELRSLRSDDTAVYYCQTGTRDYWGQGTTVTVSSHHHHHH
percentage of input scFv antibody bound (%): 92
--
BINDER: TPP-7795 scFv with C-terminal 6xHIS tag (scFv) scFv: DIQLTQSPSFLSASVGDRVTITCRASSSVSYIYWFQQKPGKAPKLLIYATSFLQSGVPSRFSGSGSGTEYTLTISSLQPEDFATYYCHQRNSFPYTFGQGTKLEIKGGGGSGGGGSGGGGSGGGGSEVQLVQSGAEVKKPGASVKVSCKASGYTFTTYTIHWVRQAPGQGLEWMGYINPKSGWTRYNPKFKGRVTMTRDKSTSTAYMELRSLRSDDTAVYYCQTGTRDYWGQGTTVTVSSHHHHHH
percentage of input scFv antibody bound (%): 80
--
BINDER: TPP-7794 scFv with C-terminal 6xHIS tag (scFv) scFv: DIQLTQSPSFLSASVGDRVTITCRASSSVRYIYWFQQKPGKAPKLLIYATSFRQSGVPSRFSGSGSGTEYTLTISSLQPEDFATYYCHQRNSFPYTFGQGTKLEIKGGGGSGGGGSGGGGSGGGGSEVQLVQSGAEVKKPGASVKVSCKASGYTFTTYAIHWVRQAPGQGLEWMGYINPSSGYTRYNPKFKHRVTMTRDKSTSTAYMELRSLRSDDTAVYYCWTGTRDYWGQGTTVTVSSHHHHHH
percentage of input scFv antibody bound (%): 85
